molecular target: HCV NS3 helicase NS3h_1b(con1) (Hepatitis C virus genotype 1b, UniProt Q9WMX2); construct: truncated C-terminally His-tagged NS3 proteins lacking the N-terminal protease, called NS3h; His-tag (C); made in house; assay: biochemical; type: biochemical, hepatitis C virus genotype 1b(con1); settings: genotype 1b (con1); read-out: Target Potency MBHA (IC50 avg., μM) 1b (con1)
Sequence (Q9WMX2 1192-1657): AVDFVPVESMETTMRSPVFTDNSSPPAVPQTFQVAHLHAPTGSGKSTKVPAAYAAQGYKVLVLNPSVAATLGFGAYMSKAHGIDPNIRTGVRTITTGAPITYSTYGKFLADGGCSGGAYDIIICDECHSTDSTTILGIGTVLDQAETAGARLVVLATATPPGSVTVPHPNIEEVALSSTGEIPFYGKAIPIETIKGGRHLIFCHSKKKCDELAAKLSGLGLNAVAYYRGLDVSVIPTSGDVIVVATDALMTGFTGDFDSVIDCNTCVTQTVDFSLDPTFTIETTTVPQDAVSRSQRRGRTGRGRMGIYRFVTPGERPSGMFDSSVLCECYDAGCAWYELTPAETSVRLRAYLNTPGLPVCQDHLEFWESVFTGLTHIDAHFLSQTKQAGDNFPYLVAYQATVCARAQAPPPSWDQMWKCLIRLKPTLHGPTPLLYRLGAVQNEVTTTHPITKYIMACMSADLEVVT
For each record, check the reported IC50: if it is below 8 µM write rule met, else write rule not met.

Exercise: Regarding Cc1ccc2nc(-c3ccc4nc(-c5ccc(NS(=O)(=O)c6ccc(C(F)(F)F)cc6)cc5)sc4c3)sc2c1S(=O)(=O)O , kindly confirm whether its IC50 is beneath 8 µM.
Key: rule not met

Exercise: Repeat for the following compound: Cc1ccc2nc(-c3ccc4nc(-c5ccc(NC(=O)c6ccc7ncoc7c6)cc5)sc4c3)sc2c1S(=O)(=O)O
Key: rule met

Exercise: And what about the compound CC(=O)Nc1ccc(-c2nc3ccc(-c4nc5ccc(C)c(S(=O)(=O)O)c5s4)cc3s2)cc1 ?
Key: rule not met

Exercise: Further, for Cc1ccc2nc(-c3ccc(NC(=O)c4ccc(NC(=O)c5ccc(C(F)(F)F)cc5)cc4)cc3)sc2c1S(=O)(=O)O.N ?
Key: rule not met

Exercise: Then COc1ccc(NC(=O)Nc2ccc(-c3nc4ccc(-c5nc6ccc(C)c(S(=O)(=O)O)c6s5)cc4s3)cc2)cc1 ?
Key: rule met
